PROTOCOL_DESCRIPTION: xn = mol fraction of the nth substance listed, in the solute-free solvent
CONDITION_DESCRIPTION: 293.15 K; x2 = 0.06974
In this section, each of the molecules is paired with its reported solubility (g/100 g solution).
Answer with a bare number; do not write a unit.

Sample answers from the record:
>  <MOLECULE>
O=C1C=CC(=O)N1c1ccccc1Br + CC(C)O + O

>  <solubility (g/100 g solution)>
1.69

$$$$
>  <MOLECULE>
Nc1ncc(Br)nc1Br + CC(C)O + O

>  <solubility (g/100 g solution)>
0.0636

$$$$
>  <MOLECULE>
O=c1cc(CBr)c2ccccc2[nH]1 + CCCO + O

>  <solubility (g/100 g solution)>
0.0561

$$$$

Value of solubility (g/100 g solution) reported for the molecule CC(C)C(=O)Nc1ccc([N+](=O)[O-])c(C(F)(F)F)c1 + CC(C)O + O is 0.0614

Value of measured solubility (g/100 g solution) for the entry O=c1cc(CBr)c2ccccc2[nH]1 + CC(C)O + O : 0.0413

* * *

PROTOCOL_DESCRIPTION: xn = mol fraction of the nth substance listed, in the solute-free solvent
CONDITION_DESCRIPTION: 288.15 K; x2 = 0.5454
Measured solubility (g/100 g solution) values are reported for all entries that follow.

>  <COMPOUND>
Nc1ncc(Br)nc1Br + CC(C)O + O

>  <EXPERIMENTAL_ENDPOINT>
solubility (g/100 g solution)

>  <TEST_VALUE>
0.255

$$$$
>  <COMPOUND>
CC(C)C(=O)Nc1ccc([N+](=O)[O-])c(C(F)(F)F)c1 + CC(C)O + O

>  <EXPERIMENTAL_ENDPOINT>
solubility (g/100 g solution)

>  <TEST_VALUE>
15.6

$$$$
>  <COMPOUND>
O=C1C=CC(=O)N1c1ccccc1Br + CC(C)O + O

>  <EXPERIMENTAL_ENDPOINT>
solubility (g/100 g solution)

>  <TEST_VALUE>
5.65

$$$$
>  <COMPOUND>
O=c1cc(CBr)c2ccccc2[nH]1 + CCCO + O

>  <EXPERIMENTAL_ENDPOINT>
solubility (g/100 g solution)

>  <TEST_VALUE>
0.128

$$$$

Next up:
Noted for O=c1cc(CBr)c2ccccc2[nH]1 + CC(C)O + O : its solubility (g/100 g solution) reads 0.0871

* * *

PROTOCOL_DESCRIPTION: xn = mol fraction of the nth substance listed, in the solute-free solvent
CONDITION_DESCRIPTION: 313.15 K; x2 = 0.7788
Label rule, in plain words: solubility (g/100 g solution) of 0.2 and up is criterion met, under 0.2 is criterion not met.

Worked examples follow.
>  <COMPOUND>
Nc1ncc(Br)nc1Br + CCO + O

>  <CAT>
criterion met

$$$$
>  <COMPOUND>
O=C1C=CC(=O)N1c1ccccc1Br + CCO + O

>  <CAT>
criterion met

$$$$
>  <COMPOUND>
CC(C)C(=O)Nc1ccc([N+](=O)[O-])c(C(F)(F)F)c1 + CCO + O

>  <CAT>
criterion met

$$$$

--- query ---
Data request: Is solubility (g/100 g solution) for Nc1cc(-c2ccncc2)c[nH]c1=O + CCO + O at or above 0.2?
Data returned: criterion not met

* * *

PROTOCOL_DESCRIPTION: xn = mol fraction of the nth substance listed, in the solute-free solvent
CONDITION_DESCRIPTION: 293.15 K; x2 = 0.3
EXPERIMENTAL_ENDPOINT: solubility (g/100 g solution)
Note: the reply should be a number with no unit written.

Some solved entries appear below for comparison.
>  <COMPOUND>
CC(C)C(=O)Nc1ccc([N+](=O)[O-])c(C(F)(F)F)c1 + CCOC(C)=O + CC(C)O

>  <solubility (g/100 g solution)>
41.5

$$$$
>  <COMPOUND>
Cl.NC1CCSC1=O (centres undefined) + CO + CC#N

>  <solubility (g/100 g solution)>
1.13

$$$$
>  <COMPOUND>
CC(C)C(=O)Nc1ccc([N+](=O)[O-])c(C(F)(F)F)c1 + CC(C)=O + CC(C)O

>  <solubility (g/100 g solution)>
45.1

$$$$

Shift focus to the following entry.
Quick note, solubility (g/100 g solution) for CC(C)C(=O)Nc1ccc([N+](=O)[O-])c(C(F)(F)F)c1 + C1CCOC1 + CC(C)O landed at 47

* * *

PROTOCOL_DESCRIPTION: xn = mol fraction of the nth substance listed, in the solute-free solvent
CONDITION_DESCRIPTION: 318.15 K; x2 = 0.3698
EXPERIMENTAL_ENDPOINT: solubility (g/100 g solution)
Please reply with the value in numeric form only.

>  <MOLECULE>
Nc1ncc(Br)nc1Br + CCO + O

>  <solubility (g/100 g solution)>
0.726

$$$$
>  <MOLECULE>
O=c1cc(CBr)c2ccccc2[nH]1 + CCO + O

>  <solubility (g/100 g solution)>
0.209

$$$$
>  <MOLECULE>
CC(C)C(=O)Nc1ccc([N+](=O)[O-])c(C(F)(F)F)c1 + CCO + O

>  <solubility (g/100 g solution)>
8.74

$$$$
>  <MOLECULE>
Nc1cc(-c2ccncc2)c[nH]c1=O + CCO + O

>  <solubility (g/100 g solution)>
0.0203

$$$$

Could you now consider this next molecule?
The molecule identified as O=C1C=CC(=O)N1c1ccccc1Br + CCO + O registered its solubility (g/100 g solution) at 16.6

* * *

solubility (g/100 g solution) reference
PROTOCOL_DESCRIPTION: xn = mol fraction of the nth substance listed, in the solute-free solvent
CONDITION_DESCRIPTION: 298.15 K; x2 = 0.04165

Illustrative cases are given below, each with its answer.
>  <COMPOUND>
CC(C)C(=O)Nc1ccc([N+](=O)[O-])c(C(F)(F)F)c1 + CCO + O

>  <solubility (g/100 g solution)>
0.00797

$$$$
>  <COMPOUND>
Nc1ncc(Br)nc1Br + CCO + O

>  <solubility (g/100 g solution)>
0.0394

$$$$
>  <COMPOUND>
O=c1cc(CBr)c2ccccc2[nH]1 + CCO + O

>  <solubility (g/100 g solution)>
0.038

$$$$
>  <COMPOUND>
O=C1C=CC(=O)N1c1ccccc1Br + CCO + O

>  <solubility (g/100 g solution)>
1.34

$$$$

Please find the next compound below.
The compound listed as Nc1cc(-c2ccncc2)c[nH]c1=O + CCO + O has a reported solubility (g/100 g solution) of 0.00218

* * *

PROTOCOL_DESCRIPTION: xn = mol fraction of the nth substance listed, in the solute-free solvent
CONDITION_DESCRIPTION: 278.15 K; x2 = 0.3698
Please note: rule met applies when solubility (g/100 g solution) is 0.2 or greater, and rule not met applies otherwise.

Please review the following examples before continuing.
>  <COMPOUND>
Nc1ncc(Br)nc1Br + CCO + O

>  <CAT>
rule met

$$$$
>  <COMPOUND>
O=C1C=CC(=O)N1c1ccccc1Br + CCO + O

>  <CAT>
rule met

$$$$
>  <COMPOUND>
Nc1cc(-c2ccncc2)c[nH]c1=O + CCO + O

>  <CAT>
rule not met

$$$$

Data request: Hello, I need to know if O=c1cc(CBr)c2ccccc2[nH]1 + CCO + O has measured solubility (g/100 g solution) not below 0.2. Thanks!
Data returned: rule not met

Data request: Would you say CC(C)C(=O)Nc1ccc([N+](=O)[O-])c(C(F)(F)F)c1 + CCO + O shows solubility (g/100 g solution) at minimum 0.2?
Data returned: rule met

* * *

PROTOCOL_DESCRIPTION: xn = mol fraction of the nth substance listed, in the solute-free solvent
CONDITION_DESCRIPTION: 293.15 K; x2 = 0.9
EXPERIMENTAL_ENDPOINT: solubility (g/100 g solution)
Just the number, please.

Take a look at these entries with their results.
>  <MOLECULE>
CC(C)C(=O)Nc1ccc([N+](=O)[O-])c(C(F)(F)F)c1 + CCOC(C)=O + CC(C)O

>  <solubility (g/100 g solution)>
44.8

$$$$
>  <MOLECULE>
CC(C)C(=O)Nc1ccc([N+](=O)[O-])c(C(F)(F)F)c1 + C1CCOC1 + CC(C)O

>  <solubility (g/100 g solution)>
62.6

$$$$

solubility (g/100 g solution) in this record for CC(C)C(=O)Nc1ccc([N+](=O)[O-])c(C(F)(F)F)c1 + CC(C)=O + CC(C)O : 61.3

Sample Cl.NC1CCSC1=O (centres undefined) + CO + CC#N ; solubility (g/100 g solution) observed: 7.84
